Collected yeast fitness values appear next to each entry.
B1: tRNA (parent)
chain: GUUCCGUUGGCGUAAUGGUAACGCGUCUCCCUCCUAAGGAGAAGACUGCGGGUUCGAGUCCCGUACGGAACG

# Variants of: B1
# test_name: yeast fitness relative to wild type (ratio to wild type); higher = fitter; tRNA-Arg(CCU), competitive growth, 37 C, YPD
Variants at the floor of the assay were thinned out.
# print the numeric value only

Example entries begin here.
U2G C11U A20C A70C; 0.667
A20U G23C U35G; 0.643
C30U G39A A40C U53A; 0.565

Record G6C U16G A45U , field yeast fitness: 0.584

// recorded yeast fitness for U8A U19C C31A U35G A43G U47C G52C G67A : 0.575

Recorded result, C4G C22U C27U , yeast fitness: 0.657

GET /value?item= A20C C34A A37G C46A &field=yeast fitness returns 0.541

G25A A43U C61A yielded yeast fitness of 0.765

Lookup result for A15C G56A G67A ; measured yeast fitness: 0.61
